Target: 5HT6 human recombinant receptor (Homo sapiens)
Construct: purchased Receptor Biology; host or cells: HEK-293 cell membranes
Sequence (P50406 whole entry): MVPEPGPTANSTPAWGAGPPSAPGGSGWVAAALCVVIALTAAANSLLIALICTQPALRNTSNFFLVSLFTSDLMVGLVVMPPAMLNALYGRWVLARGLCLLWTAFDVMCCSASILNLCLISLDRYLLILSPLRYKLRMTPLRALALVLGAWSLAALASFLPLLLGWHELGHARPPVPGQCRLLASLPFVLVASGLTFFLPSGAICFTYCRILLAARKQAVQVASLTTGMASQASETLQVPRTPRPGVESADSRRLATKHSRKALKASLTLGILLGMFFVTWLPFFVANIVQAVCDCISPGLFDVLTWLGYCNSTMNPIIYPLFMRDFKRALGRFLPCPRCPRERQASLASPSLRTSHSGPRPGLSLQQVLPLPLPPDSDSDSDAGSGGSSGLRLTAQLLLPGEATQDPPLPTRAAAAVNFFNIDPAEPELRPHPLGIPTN
Assay: Binding with Serotonin Receptor 5HT6 ([3H]-LSD radioligand, HEK-293 cell membranes)
Conditions: compound 10 nM; [3H]-LSD 2.7 nM; HEK-293 membranes, 60 min, 37° C.
Procedure: Binding with Serotonin Receptor 5HT6 Cell membranes of HEK-293 cells expressing the 5HT6 human recombinant receptor were supplied by Receptor Biology. […] Non-specific binding is determined in the presence of 100 μM of serotonin. […] The inhibition constants (Ki, nM) were calculated by non-linear regression analysis using the program EBDA/LIGAND [Munson and Rodbard, Analytical Biochemistry, 1980, 107, 220].
Classify by measured inhibition at 0.01 µM: 1 (yes) if it is equal to or exceeds 60%, 0 (no) if it is smaller.

NCCc1c[nH]c2ccc(NS(=O)(=O)c3ccc4c(Cl)cccc4c3)cc12 :: 1 (yes)

Evaluate `NCCc1c[nH]c2ccc(NS(=O)(=O)c3ccc4ccccc4c3)cc12` : inhibition at 0.01 µM at minimum 60%?
1 (yes)

Is reported inhibition at 0.01 µM greater than or equal to 60% here: `NCCc1c[nH]c2ccc(NS(=O)(=O)c3cccc4ccccc34)cc12`
0 (no)

These measurements were taken from patent US20100120886A1.
